Measured values drawn from paper PMC9673142 for this set.

TESTED_SYSTEM: Mtb HadAB (Mycobacterium tuberculosis, UniProt I6WYY7+P9WFK1)
Sequence (I6WYY7 entry or part of it): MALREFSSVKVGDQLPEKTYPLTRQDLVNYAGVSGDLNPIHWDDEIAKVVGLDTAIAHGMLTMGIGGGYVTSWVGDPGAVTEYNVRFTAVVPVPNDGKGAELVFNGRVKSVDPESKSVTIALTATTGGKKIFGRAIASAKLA
Sequence (P9WFK1 whole entry): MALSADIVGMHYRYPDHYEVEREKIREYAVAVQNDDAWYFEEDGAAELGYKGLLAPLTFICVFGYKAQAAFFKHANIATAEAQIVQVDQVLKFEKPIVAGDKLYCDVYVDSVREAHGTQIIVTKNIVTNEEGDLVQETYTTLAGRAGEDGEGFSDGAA
PROCEDURE_TEXT: biochemical
CONDITIONS_USED: HadAB 22 nM, trans-2-C16:1-CoA 60 μM; mean ± SD of duplicate assays; read-out: HadAB IC50
QUANTITY_MEASURED: pIC50
Lab note: report pIC50 as minus log10 of the concentration in molar units, number only.

[in] Param item = CS(=O)(=O)NC(=O)CCc1cn(-c2ccc(Br)cc2)nc1-c1ccc(Cl)cc1 [Compound 9] ; retrieve measured pIC50.
[out] 7.52
